The measurements presented in this section are drawn from patent US20030068675.

Molecular target: T1, ZFP SBS#1377 (synthetic, UniProt P08047)
T1 chain: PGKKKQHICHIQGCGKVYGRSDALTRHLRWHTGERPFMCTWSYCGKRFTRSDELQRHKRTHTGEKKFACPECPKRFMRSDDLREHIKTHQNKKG
Experiment: EMSA
Settings: tags: MBP fusion
Observed property: Kd

So for CCGGCGGTG (dsDNA) DNA 1: CCGGCGGTG DNA 2: CACCGCCGG , the logged Kd turned out to be 0.012 nM
